- Method: protease stability score; higher = more stable; yeast display proteolysis, trypsin and chymotrypsin;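 also: log10 excess protease needed over predicted unfolded state with 0 meaning unfolded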
Readout Name: protease stability score
Kindly provide the number alone.

Request: Report protease stability score for DEEKEETTVEKLAKAVNTGDPDQIEDLADKDVRATIGDRQVHGREEMDRNMKEWEDKIDHLELKSVDVQGESAHANLDQRHNGRHVRMVAIAHVENGRAVEVVFRDQ please.
Result: -0.157

Request: // returns reported protease stability score for input DEQKEMKRFANQFNSAIRHGDEKKMADLFDPNARMEVGDTSWNGRRNLEKEWKRRNETIDHARVHLQDVSVDGNSATVVFVLVENVNGEERNDVYVFVAVKHNGKIVIDHMTQK
Result: 0.159

Request: Could you tell me which protease stability score is on file for DEELLELVRRWITAVRTNDPKQLEKNFDPNAKFEYGDKSVRGKEQVVREQEKQVQEIRFSYRISDFRVDNGRVEMEVKVHEKHNGRPDTKTVKWKAEMSNGRLVWMRMQKRQ ?
Result: 0.412

----------
- Method: protease stability score; higher = more stable; yeast display proteolysis, trypsin and chymotrypsin;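 also: log10 excess protease needed over predicted unfolded state with 0 meaning unfolded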
Consider the following sequences and their measured protease stability score readings.
Answer as a number with no unit attached.

Worked examples follow.
Sequence Code | protease stability score
DEHLVEKVEEFLQNLQNNNEEEIQKQVDPNAKIDVGDKTVDGREEANKWAEELKDESRFEIKDVKYESHNGRVRANFTAQVDHNGRPETRKYDITFNWHDGVIKHIDNKTTS | 0.403
DEENVKIFEEFLRAEQTNDPERAKELIDKDVRIRVGDKTYHGREEWVNTFEEQQRHLKVHYKHVDNTHRNGRVHVRMTFDAVTNGEPKEVTARVEAEFHNGKAKDIQVEYRG | -0.257
DHKEARDVAQTMMHLLKHGDFEQIVRNADPNAHFVVGDKEYHGRDNLRKVLKRLHDQVDHISFRTYKVDEDTAKLDATVQINGRNYRMDVLVHFHNGRIKDLNIKVTDEDTQREADK | 2.08
DEEDESRHAEIAIRALAQGDEEELRRQVDPNARVRIGEFNVHGREAAHKAVKTLQEEFDHVDLTHVTTRGEKARVDVKYKKNGKEVTFQLEAKVHDGKVKELQMEKG | -0.241
DEKEVKDADKEMERLMKKNDFQHIVDQMDPNAKIIVGDQDLHGKEEAEKVAQEMDKQIDSIEVKSVHAHGDKAVVHFVNHHNGRNKRVVITLRWSNGRIQEMQIQDQ | -0.157

Pending sequence:
Request: If you can, please state the reported protease stability score value of DHEEQMEKFIKTLKKLMKNNDWETWASLADPNAEARYGDSEYHGREKIVTHMRKLQEHVDHADLKFRSVSLRNGEVTMRISFHVKVNGTDQSHEAKLVLEIDNGRAVIKKMVLD .
Result: 0.795

----------
- Method: protease stability score; higher = more stable; yeast display proteolysis, trypsin and chymotrypsin;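 also: log10 excess protease needed over predicted unfolded state with 0 meaning unfolded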
Readout Name: protease stability score
Answer with a number only.

Request: Recorded protease stability score of DEEAVKKMMEEWHKALESKNDDQFRKIYKPNVEWVNGDTKRQGQEDVVKMLQKVQKDGAEFQVRDAKVEGDRARMVYDLNVGDKTATFTVEMDAEGGRVDRVQVEIDEKAKKVLTEG , please.
Result: 0.294

Request: # lookup: protease stability score of EEEVKRKMKEYFDVARHGDPDRLREYVDENARIHIGDKVIHGMSDAADHLAQHYKEIRFDYTRIDVKAEGDQVKVDIDVVVNHNGRPEQVHLHWEARFTNGRVKHMKVQRQK
Result: -0.108

Request: Item DENRLRHLAHHMVEVLKTGNEEEIERLMDENVRLTYGDKEVHGRENVRQYIRQLREEIDHFSVQEIDVSGDKVTIVFTFIVNGQRVRAVLKVRFHNGRIVEATIEYTDEDQKRRADS has what recorded protease stability score?
Result: 1.35

Request: Could you share which protease stability score value was measured for DESEMDTAVKIVEKGDPHQYKKLIDPNAKIIVGDKELHGREDVERLLHKLYEQADHVQINSITVQGDELRVDAQFKFNGRDIRMVVEFRVHNGRVKSAHIQATSEEQERELSKMIS ?
Result: 1.35

Request: Fill in: protease stability score of DEQKEAEDIINTWREVLKDNDTDKARELADKHVRVVVGDKELHGREDFVRYFHEVAHRVDHIDIDVLDLTVHNGRIHFEADAVADVNGRKDTFVIRMVWQSQGDKHNMQEMHVP is ___
Result: -0.09

----------
- Method: protease stability score; higher = more stable; yeast display proteolysis, trypsin and chymotrypsin;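 also: log10 excess protease needed over predicted unfolded state with 0 meaning unfolded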
Readout Name: protease stability score

Here are 3 sequences together with their reported answers.
Sequence Code | protease stability score
DEEVVHDLENQFRKNNWEEFARQADENAKVNIGEFEISGRSQIEEWAHRVKKQVDHIDVKHVSYDEDHLRMRVVVVVNGRKFDFEVIINVSNGEVKHMEVRFRDPSQETEWLNQIN | 1.61
DDDKDRKIAEEITKLLKHGNPDELARQADPNVRLEVGDHVYHGRHQMVEWVKHFWERADHLRIKDVTTRPGHVDLVATLRFDGKEAEFKVTFEFHNGRLKRVEVDPEFQKQIDS | 1.56
DDHAQRHLKELLKVINTGDEEEVEHMADPNARIQVGDKVFHGMRSYVDDIRRKKEELNVEYNVRRMDADGNRVEANVDVVFNHNGKPDRRTVDMKATIRNGKIKSMHWQENP | -0.227

Request: // lookup protease stability score for DKENLETLHELMTALERGDEQKVADEIDPNAKLQYGDKEIHGRKQAHRFIKTVKDQQRFHIQVKDLKVKGDTMDLRAEVEFQHNGHPDSDVIVVNARAHNGHISTLTVTKDD
Result: -0.223

Request: Recorded protease stability score for DREKQSEISTMMQKGDPQHLVDLADENAHVEIGNKRVHGRNQIKEYADRFHERVDHYSVRSIEIEGDTVTVTAYFVVNGQNIEWTMQMQNHNGKVKRIRVRFTNEELEKQLDKALS , please?
Result: 0.846

Request: Entry under review: DEEDRKSLHDLNRTGDEDEIAHNVDPNAKLDVGEFKVHGSEQVKKVMEELKKRIDHRHIRSISVRGDKLVARVQIDVNGQTAYYRLIIRVHNGRIKEINADYTSEDDKKAVNEAKS . Reported protease stability score?
Result: 0.756

Request: Quick one: protease stability score of DERLLHEFQKNVENNNWDKLSELVDEDAKIKYGDKTITGRESLDRMFTQLKRQVDHVDIESVHIDGDKVHVDLRIRVNGHSVRFIMTAEFSNGRIKSMKIEVTSEEQQDHLNEQLS ?
Result: 1.19

Request: Could you tell me which protease stability score is on file for DEKKVKEIAKKAFEYAVKGNEEQLQKLVKPNVDYEYVDEKYEGEDVVKKMVRLLKKVGAEVKIKRYEVKGDTVKADFDYNKGDKTVRTTAEVVYNGDKITQARLELTDEVKKIMHQG ?
Result: 0.681

Request: Give its protease stability score value. Item: DEKETKKVLERIVKIFENGNAEEAKKMGKEDVEVEYGDETKHGPDALYEFIEKMKKLGAKVEYKEVHVEGDKVTVRIQADYGGRRAEMHVTYQATGNRVDNVKLKYSKTAQEMIKHG
Result: 0.084

Request: // protease stability score lookup, key: DEEDLHHLAREMKDLMQRGDHKRFEELADENARLIIGDKTVTGRTRIKDELRKWREEADHIQIHDVRASGNRINLDIRVVVNGQEHRFIVIIELKNGKVSQMEVEDS
Result: 1.91

Request: Could you tell me which protease stability score is on file for DEENLQKIAHKVVRALHDGDPHQMHDLFDKDARISYGDKSVHGRNEISKAAHEREERVDDIDFKSFSVKNGHVEVDAKYDHNGQRREVIVQVEMHNGRIKSARFTKK ?
Result: 0.2

----------
- Method: protease stability score; higher = more stable; yeast display proteolysis, trypsin and chymotrypsin;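 also: log10 excess protease needed over predicted unfolded state with 0 meaning unfolded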
Record Yes whenever protease stability score is at -0.1 or higher; record No when lower.

Request: Given the entry DPRKVKDAVRKVVEAMMNGDVEKIVKLYKPDGELYLGSQKVRGQEQVEKEAKKFYDKGARFQVKEQHVKGDNATVVFDMTANGQTVTFQFEIKVKDDTVDKYEVRFTEKADELRRKG , answer whether its protease stability score meets or surpasses -0.1.
Result: No

Request: Can DHSQLEIVIEWVKALQEGDPDKAKKNMDKNVKLDIGDKRLEGRDEVRKEMETMKKSARFDLHIDSYNVHGDHAELRVTFRNDHNGRPKKDRNTIRATAHNGRITYLSVEHTG be said to have protease stability score at or above -0.1?
Result: Yes

Request: Does DHELEELAKRFLEAVLTGDEDQLRRNMDPNVKVDVGDKTVKGREEAAREIHETVHRSRIHVNHVDFRLNNGRETMRMDVVVDHNGRPQKDTWKMNQDVQGDKVKNINFRTDG have a reported protease stability score of at least -0.1?
Result: No

Request: I'd appreciate it if you could say whether DEKHAQHAAEIAEQGDPDEWEELADKDVKVDIGDQRVHGREQASSFWRKLREQADTIEYKSYRVDNGRVQLDFVVDINGHRLEFTLRFVVDNGRITEMEVQARDERQNEELKKIDS has protease stability score at least equal to -0.1.
Result: Yes

Request: Please tell me: is the sequence DEKHLERQVDHFLDALHRGDEDEAVNLADPDVEFQVGDRTYHGKEQLKEWLKRLVDRVDHVDIKNITVSGDKVEVHADFSVDGRKETMTFTVRAHNGRIKHMTIDKG at or over -0.1 in terms of protease stability score?
Result: Yes

Request: Please check the record DEEKRAEDFFRKLLQVMETGDEDKQRKMADPNARVIIGEKTFHGRENMAKAMKELRDRVDSIEFDLREIETEPGRIVINVVVILDHDGDKDERELNIRAKITGDTLVLEEIKDT and state if its protease stability score is at or above -0.1.
Result: No

The measured values listed here are drawn from the NTF2 design screens of Basanta et al. (2020).
